Test: small-molecule binders of probe aInhba, primary screen, biochemical, small-molecule microarray, 635/667 nm fluorescence (AID 1148);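 note: score merges 667nm spot fluorescence with signal-to-noise for antibody binding to printed compounds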
Conditions: higher = more signal
metric: composite z-score
Answers are plain numbers.

Would you please look over these solved cases?
Value of composite z-score reported for the compound CC(C)C[C@@H]1NC(=O)[C@H](CC(C)C)NC(=O)[C@@]23C(=O)N[C@@H](Cc4ccccc4)C2[C@H](C)[C@@]2(C)O[C@H]2C3/C=C/CC/C=C/CNC1=O (some centres not stated) is -0.128

Value of composite z-score reported for the compound CN1CCC(CCCO)=CC1C1CC1 (configuration not stated) is -0.202

Value of composite z-score reported for the compound CN(C)c1ccc(C(O)C2C=CC3C(=O)NC(=O)C3N2Nc2ccc(Cl)cc2Cl)cc1 (configuration not stated) is 0.13

Value of composite z-score reported for the compound `COC(=O)C1=C(C)N(Cc2ccccc2)c2c(C(=O)OC)c(C(=O)OC)c(C(=O)OC)c(=O)n2[C@@H]1c1ccccc1` is 0.0503

Value of composite z-score reported for the compound C=CCC(OC(C)=O)[C@@H]1[C@@H](N(Cc2cc3ccccc3o2)C(=O)Cc2ccc(F)cc2)c2cc(OCCCO)ccc2N1C(=O)c1ccc(-c2ccccc2)cc1 (some centres not stated) is -0.0313

I need composite z-score for every entry listed below, if you could help.
1. CO[C@H]1COC(=O)[C@H](C)NC(=O)CC=C[C@@H](C)[C@H](NS(=O)(=O)c2ccc(C)cc2)COC(=O)[C@@H](OCc2ccccc2)C=C[C@@H]1C
2. COc1ccc([Si](C)(C)[C@H]2[C@H](CC(=O)N(CCO)Cc3ccccc3)O[C@@]3(C(=O)N(C)c4ccccc43)[C@@H]2C)cc1

stdout:
1: -0.261; 2: -0.0986
